Target: human Nav1.8/b3 (Homo sapiens)
Construct: expressed in transfected cells; host or cells: CHO
Sequence (Q9Y5Y9 whole entry): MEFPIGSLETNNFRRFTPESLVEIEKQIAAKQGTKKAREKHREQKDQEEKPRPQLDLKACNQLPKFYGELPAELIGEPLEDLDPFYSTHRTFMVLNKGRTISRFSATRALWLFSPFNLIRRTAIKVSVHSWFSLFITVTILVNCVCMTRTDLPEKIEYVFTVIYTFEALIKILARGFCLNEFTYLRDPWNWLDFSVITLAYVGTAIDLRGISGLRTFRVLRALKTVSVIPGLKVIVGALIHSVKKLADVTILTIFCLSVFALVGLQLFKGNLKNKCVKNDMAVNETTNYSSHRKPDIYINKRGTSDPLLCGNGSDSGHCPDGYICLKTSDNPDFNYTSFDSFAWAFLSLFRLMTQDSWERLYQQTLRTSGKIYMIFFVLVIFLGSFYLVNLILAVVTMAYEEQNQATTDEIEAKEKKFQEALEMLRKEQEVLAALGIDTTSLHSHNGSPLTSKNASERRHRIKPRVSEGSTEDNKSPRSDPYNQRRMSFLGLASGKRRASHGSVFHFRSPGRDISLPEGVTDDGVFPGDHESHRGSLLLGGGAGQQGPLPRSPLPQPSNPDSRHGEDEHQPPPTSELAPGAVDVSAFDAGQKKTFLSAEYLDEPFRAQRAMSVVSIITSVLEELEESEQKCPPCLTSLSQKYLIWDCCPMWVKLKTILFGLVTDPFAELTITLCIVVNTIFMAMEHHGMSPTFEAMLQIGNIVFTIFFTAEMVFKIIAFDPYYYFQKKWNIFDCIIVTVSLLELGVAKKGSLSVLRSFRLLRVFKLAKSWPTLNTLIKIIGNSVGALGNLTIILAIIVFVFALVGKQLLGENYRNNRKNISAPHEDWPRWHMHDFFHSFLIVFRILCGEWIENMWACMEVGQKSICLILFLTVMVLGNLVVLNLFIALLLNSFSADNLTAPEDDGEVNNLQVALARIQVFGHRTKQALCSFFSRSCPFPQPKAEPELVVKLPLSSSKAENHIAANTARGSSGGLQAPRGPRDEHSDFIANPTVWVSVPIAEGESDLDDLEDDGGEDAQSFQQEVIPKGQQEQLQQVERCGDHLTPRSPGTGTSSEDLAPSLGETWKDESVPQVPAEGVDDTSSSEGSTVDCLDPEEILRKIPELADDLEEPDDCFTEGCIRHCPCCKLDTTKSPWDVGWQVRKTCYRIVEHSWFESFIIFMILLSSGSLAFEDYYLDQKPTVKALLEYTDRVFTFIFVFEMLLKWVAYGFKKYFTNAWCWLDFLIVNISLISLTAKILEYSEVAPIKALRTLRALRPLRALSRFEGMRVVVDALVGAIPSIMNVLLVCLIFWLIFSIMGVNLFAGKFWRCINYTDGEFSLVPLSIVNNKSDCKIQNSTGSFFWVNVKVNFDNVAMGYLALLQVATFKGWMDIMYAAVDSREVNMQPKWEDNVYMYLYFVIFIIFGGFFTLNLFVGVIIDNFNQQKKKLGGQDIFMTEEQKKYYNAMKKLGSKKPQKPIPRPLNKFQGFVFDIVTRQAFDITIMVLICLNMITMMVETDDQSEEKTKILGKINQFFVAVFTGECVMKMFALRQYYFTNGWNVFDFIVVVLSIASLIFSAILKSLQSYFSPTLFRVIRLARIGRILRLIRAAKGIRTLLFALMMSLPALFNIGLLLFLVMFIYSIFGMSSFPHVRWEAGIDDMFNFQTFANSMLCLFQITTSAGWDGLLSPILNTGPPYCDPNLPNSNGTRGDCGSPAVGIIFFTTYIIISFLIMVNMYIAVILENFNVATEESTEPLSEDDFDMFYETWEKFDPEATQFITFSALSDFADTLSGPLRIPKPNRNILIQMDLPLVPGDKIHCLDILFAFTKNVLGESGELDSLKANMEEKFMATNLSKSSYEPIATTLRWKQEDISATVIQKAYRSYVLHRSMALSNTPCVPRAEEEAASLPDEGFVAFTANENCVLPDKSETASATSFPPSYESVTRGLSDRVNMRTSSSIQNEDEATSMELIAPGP
Sequence (Q9NY72 23-215 partner): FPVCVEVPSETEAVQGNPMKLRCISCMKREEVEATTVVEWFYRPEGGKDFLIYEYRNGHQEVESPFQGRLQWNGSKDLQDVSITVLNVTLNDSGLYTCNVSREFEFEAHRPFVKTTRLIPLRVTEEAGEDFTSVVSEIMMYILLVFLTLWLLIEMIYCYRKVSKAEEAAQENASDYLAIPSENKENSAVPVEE
Assay: Compound Profiling Human NaV1.8/β3 Cell Line—SyncroPatch384PE Assay (automated patch clamp, stably transfected CHO cells)
Type: cell-based
Conditions: P1 (IC50, resting state block), P1 measurement, resting state block; Nav1.8/b3 CHO cells, holding potential −120 mV; third set of compounds
parameter: IC50

- COc1ccc(Oc2ncc(C(F)(F)F)c(C)c2C(=O)Nc2cccc([S@@](C)(=N)=O)c2)c(C)n1 [Example 116C]: 5 to 50 nM
- COc1cc(C#N)ccc1Oc1ncc(Cl)c(C)c1C(=O)Nc1cccc(S(C)(=N)=O)c1 (stereo not shown) [Example 25C]: < 5 nM
- COc1cc(C#N)ccc1Oc1cc(C(F)(F)F)nnc1C(=O)Nc1cccc(S(C)(=N)=O)c1 (stereo not shown) [Example 34C]: > 200 nM
- Cc1nc(F)ccc1Oc1ncc(-c2ccc3c(c2)OCCO3)c(C)c1C(=O)Nc1cccc([S@](C)(=N)=O)c1: 5 to 50 nM
- Cc1nc(F)ccc1Oc1ncc(C(F)F)c(C)c1C(=O)Nc1ccnc([S@@](C)(=N)=O)c1 [Example 114C]: > 200 nM
- COc1cc(C#N)ccc1Oc1cc(C(F)(F)F)nnc1C(=O)Nc1cccc(S(C)(=O)=O)c1 [Example 38C]: > 200 nM
- COc1cc(C#N)ccc1Oc1ncc(-c2ccc(C)cc2)c(C)c1C(=O)Nc1cccc([S@](C)(=N)=O)c1 [Example 21C]: < 5 nM
